# tested-on: T1, CD73 on the surface of human tumor cells (human, UniProt P21589 27-549)
# T1 chain: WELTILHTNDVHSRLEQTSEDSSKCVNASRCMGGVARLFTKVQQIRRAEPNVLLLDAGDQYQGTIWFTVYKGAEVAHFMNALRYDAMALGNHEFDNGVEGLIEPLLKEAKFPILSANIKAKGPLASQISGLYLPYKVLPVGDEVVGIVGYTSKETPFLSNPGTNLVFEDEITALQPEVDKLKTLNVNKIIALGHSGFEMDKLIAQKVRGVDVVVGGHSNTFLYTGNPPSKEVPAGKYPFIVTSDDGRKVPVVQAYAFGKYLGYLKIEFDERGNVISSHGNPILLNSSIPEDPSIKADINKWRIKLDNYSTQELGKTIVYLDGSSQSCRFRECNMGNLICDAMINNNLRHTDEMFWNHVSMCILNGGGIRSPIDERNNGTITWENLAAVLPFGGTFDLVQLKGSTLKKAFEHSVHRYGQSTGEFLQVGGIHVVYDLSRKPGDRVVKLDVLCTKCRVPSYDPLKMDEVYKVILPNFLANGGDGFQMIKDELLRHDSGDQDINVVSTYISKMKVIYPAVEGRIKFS
# assay-summary: inhibition of cell-surface CD73 enzyme activity; right panel
IC50 less than 0.4 nM is Y; IC50 greater than or equal to 0.4 nM is N.

Query: For this binder, is IC50 lower than 0.4 nM? Hu002c-16 (antibody, V domains shown) VH: QVQLVQSGAEVKKPGASVKVSCKASGYTLTSYWMHWVKKAPGQGLEWIGEINPSQGRSNYNEKFKSKVTLTVDRSTSTVYMELSSLRSEDTAVYYCARRGVSGNYFDYWGQGTLVTVSS VL: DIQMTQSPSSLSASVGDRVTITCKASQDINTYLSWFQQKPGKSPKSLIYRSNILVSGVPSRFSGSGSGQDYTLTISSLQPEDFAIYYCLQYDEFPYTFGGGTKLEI
Result: Y

Query: For this binder, is IC50 lower than 0.4 nM? mAb002c (antibody, V domains shown) VH: QVQLQQPGAELVKPGASVRLSCKASGYTLTSYWMHWVKKRPGQGLEWIGEINPSNGRSNYNEKFKSKATLTVDRSSSTVYMQLGSLTSEDSAVYYCARRGVSGNYFDYWGQGTTLTVSS VL: DIKMTQSPSSMYASLGERVTMTCKASQDINTYLSWFQQKPGKSPKTLIYRSNILVDGVPSRFSGSRSGQDYYLTITSLEYEDMGIYYCLQYDEFPYTFGGGTKLELK
Result: Y

Query: For this binder, is IC50 lower than 0.4 nM? mAb002c-VH-QG/VK-SG (antibody, V domains shown) VH: QVQLQQPGAELVKPGASVRLSCKASGYTLTSYWMHWVKKRPGQGLEWIGEINPSQGRSNYNEKFKSKATLTVDRSSSTVYMQLGSLTSEDSAVYYCARRGVSGNYFDYWGQGTTLTVSS VL: DIKMTQSPSSMYASLGERVTMTCKASQDINTYLSWFQQKPGKSPKTLIYRSNILVSGVPSRFSGSRSGQDYYLTITSLEYEDMGIYYCLQYDEFPYTFGGGTKLELK
Result: N

Query: For this binder, is IC50 lower than 0.4 nM? Hu002c-15 (antibody, V domains shown) VH: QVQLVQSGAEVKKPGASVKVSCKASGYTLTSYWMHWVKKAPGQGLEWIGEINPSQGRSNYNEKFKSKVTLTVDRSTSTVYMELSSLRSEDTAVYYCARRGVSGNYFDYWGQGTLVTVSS VL: DIQMTQSPSSLSASVGDRVTITCKASQDINTYLSWFQQKPGKSPKSLIYRSNILVSGVPSRFSGSGSGQDYTLTISSLQPEDFATYYCLQYDEFPYTFGGGTKLEIK
Result: N

Query: For this binder, is IC50 lower than 0.4 nM? Hu002c-10 (antibody, V domains shown) VH: QVQLVQSGAEVKKPGASVKVSCKASGYTLTSYWMHWVRQAPGQGLEWIGEINPSQGRSNYNEKFKSKVTLTVDRSTSTVYMELSSLRSEDTAVYYCARRGVSGNYFDYWGQGTLVTVSS VL: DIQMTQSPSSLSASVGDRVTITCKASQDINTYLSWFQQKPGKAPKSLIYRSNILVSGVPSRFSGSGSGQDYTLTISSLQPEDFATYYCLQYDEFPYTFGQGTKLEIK
Result: N
